Origin of values: patent US20240059797A1

I'd appreciate it if you could supply kon values for the items below.
target: T1, HLA-A*01:01_… (HLA-PEPTIDE target G2), recombinant biotinylated complex (human, enzymatically biotinylated (BirA)); experiment: BLI, pHLA on sensor, Fab titrated, 1:1 model
T1 construct: also called G2-pHLA
One number for each entry, in M⁻¹ s⁻¹.

Here's what some known entries look like.
{"binder": "G2(1B12) Fab (Fab, V domains shown, Fab) VH: QVQLVQSGAEVKKPGASVKVSCKASGYTFTSYGITWVRQAPGQGLEWMGWINPNSGGTNYAQKFQGRVTMTRDTSTSTVYMELSSLRSEDTAVYYCARDYGDLDYWGQGTLVTVSS VL: DIQMTQSPSSLSASVGDRVTITCRASQNIGNWLAWYQQKPGKAPKLLIYAASTLQTGVPSRFSGSGSGTDFTLTISSLQPEDFATYYCQQSYSAPYSFGQGTKLEIK", "scale.unit": "M⁻¹ s⁻¹", "measured": 366000}
{"binder": "G2(1B06) Fab (Fab, V domains shown, Fab) VH: QVQLVQSGAEVKKPGASVKVSCKASGGTFSNYILSWVRQAPGQGLEWMGWINPDSGGTNYAQKFQGRVTMTRDTSTSTVYMELSSLRSEDTAVYYCARGSYGMDVWGQGTTVTVSS VL: DIQMTQSPSSLSASVGDRVTITCRASQSISRWLAWYQQKPGKAPKLLIYAASSLQSGVPSRFSGSGSGTDFTLTISSLQPEDFATYYCQQSYSTPYTFGQGTKLEIK", "scale.unit": "M⁻¹ s⁻¹", "measured": "1.06e+06"}

Okay, here is my list. What is kon for each of these?
1. G2(1H01) Fab (Fab, V domains shown, Fab) VH: QVQLVQSGAEVKKPGASVKVSCKASGYTFTRYTINWVRQAPGQGLEWMGWINPNSGGTNYAQKFQGRVTMTRDTSTSTVYMELSSLRSEDTAVYYCARDFVGYDDWGQGTLVTVSS VL: DIQMTQSPSSLSASVGDRVTITCRASQSVGNWLAWYQQKPGKAPKLLIYGASSLQTGVPSRFSGSGSGTDFTLTISSLQPEDFATYYCQQSYSAPYTFGQGTKVEIK
2. G2(2A11) Fab (Fab, V domains shown, Fab) VH: EVQLLESGAEVKKPGASVKVSCKASGYTFTTYDLAWVRQAPGQGLEWMGWINPNSGGTNYAQKFQGRVTMTRDTSTSTVYMELSSLRSEDTAVYYCARANWLDYWGQGTLVTVSS VL: DIQMTQSPSSLSASVGDRVTITCRASQDISRWLAWYQQKPGKAPKLLIYAASRLQAGVPSRFSGSGSGTDFTLTISSLQPEDFATYYCQQSYSTPYSFGQGTKLEIK
3. G2(2A03) Fab (Fab, V domains shown, Fab) VH: QVQLVQSGAEVKKPGASVKVSCKASGYTFTSYTVNWVRQAPGQGLEWMGWINPNSGGTKYAQNFQGRVTMTRDTSTSTVYMELSSLRSEDTAVYYCARGGGGALDYWGQGTLVTVSS VL: DIQMTQSPSSLSASVGDRVTITCRASQSISSWLAWYQQKPGKAPKLLIYAASTLQSGVPSRFSGSGSGTDFTLTISSLQPEDFATYYCQQSYLPPYSFGQGTKLEIK
4. G2(1H11) Fab (Fab, V domains shown, Fab) VH: QVQLVQSGAEVKKPGASVKVSCKASGYTFTNYYMHWVRQAPGQGLEWMGMINPSGGGTSYAQKFQGRVTMTRDTSTSTVYMELSSLRSEDTAVYYCARGNPWELRLDYWGQGTLVTVSS VL: DIQMTQSPSSLSASVGDRVTITCQASQDISNYLNWYQQKPGKAPKLLIYAASSLQSGVPSRFSGSGSGTDFTLTISSLQPEDFATYYCQQYYSYPFTFGPGTKVDIK

a:
952000
633000
332000
581000
